# STUDY_SYSTEM: UniProt:O43614
# Sequence (O43614 whole entry): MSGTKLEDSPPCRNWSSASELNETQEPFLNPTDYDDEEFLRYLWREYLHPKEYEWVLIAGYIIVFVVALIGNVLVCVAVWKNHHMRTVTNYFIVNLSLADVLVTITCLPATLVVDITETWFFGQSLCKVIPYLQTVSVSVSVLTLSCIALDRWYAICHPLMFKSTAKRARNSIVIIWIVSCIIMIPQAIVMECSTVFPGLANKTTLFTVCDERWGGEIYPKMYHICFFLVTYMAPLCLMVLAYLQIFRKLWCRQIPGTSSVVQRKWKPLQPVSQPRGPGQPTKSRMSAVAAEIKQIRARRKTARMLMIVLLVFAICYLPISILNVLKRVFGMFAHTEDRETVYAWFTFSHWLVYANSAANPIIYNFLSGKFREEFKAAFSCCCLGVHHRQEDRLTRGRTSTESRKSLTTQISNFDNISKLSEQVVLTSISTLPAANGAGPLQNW
# METHOD_SUMMARY: Human orexin 2 receptor radioligand binding ([3H]-EMPA competition)
# PROTOCOL_CONDITIONS: HEK293 cells stably expressing human orexin-2 receptor; [3H]-EMPA 5 nM final; read-out: OR-2 Ki
PROPERTY_MEASURED: pKi
A value of pKi is the negative decimal logarithm of a concentration given in moles per litre.

Previously resolved entries follow.
[
  {
    "COMPOUND": "COc1ccnc(N2CC3CN(C(=O)c4ccccc4-c4ccccc4)CC32)n1 (stereo not shown)",
    "STUDY_SYSTEM": "UniProt:O43614",
    "pKi": 6.41
  },
  {
    "COMPOUND": "Cc1cc(C)nc(N2C[C@@H]3CCN(C(=O)c4cccc(C)c4-n4ccnn4)C[C@@H]32)n1",
    "STUDY_SYSTEM": "UniProt:O43614",
    "pKi": 7.15
  },
  {
    "COMPOUND": "COc1ccc(-n2nccn2)c(C(=O)N2CC[C@H]3CN(c4cc(C)ccn4)[C@H]3C2)c1",
    "STUDY_SYSTEM": "UniProt:O43614",
    "pKi": 6.68
  },
  {
    "COMPOUND": "Cc1cncc(N2C[C@@H]3CCN(C(=O)c4cc(F)ccc4-n4nccn4)C[C@@H]32)n1",
    "STUDY_SYSTEM": "UniProt:O43614",
    "pKi": 6.75
  },
  {
    "COMPOUND": "Cc1cc(C)nc(N2C[C@@H]3CCN(C(=O)c4cccc(F)c4-c4cc[nH]n4)C[C@@H]32)n1",
    "STUDY_SYSTEM": "UniProt:O43614",
    "pKi": 8.05
  }
]

// pKi value for Cc1cc(N2C[C@@H]3CCN(C(=O)c4c(F)cccc4-n4nccn4)C[C@@H]32)nc(N(C)C)n1 : 7.14

// pKi value for O=C(c1ccccc1-n1nccn1)N1CC2CN(c3nccc(-c4ccccc4)n3)C2C1 (stereo not shown) : 6.81

// pKi value for Cc1ccc(-n2nccn2)c(C(=O)N2CC3CN(c4nc(C)cc(C)n4)C3C2)c1 (stereo not shown) : 6.72

// pKi value for COc1cccc(OC)c1C(=O)N1CCC2CN(c3nc4ccccc4o3)C2C1 (stereo not shown) : 6.55

// pKi value for O=C(c1ccccc1-c1cccs1)N1C[C@H]2CN(c3nccc(-c4ccccc4)n3)[C@H]2C1 (single isomer, unassigned) : 6.89

// pKi value for Cc1cnc(N2C[C@@H]3CCN(C(=O)c4ccccc4-n4nccn4)C[C@@H]32)cn1 : 6.70

// pKi value for O=C(c1ccc(F)cc1-n1nccn1)N1CC[C@H]2CN(c3cnc4ccccc4n3)[C@H]2C1 : 7.22

// pKi value for O=C(c1ccccc1-c1ccccc1)N1CC2CN(c3nccc(-c4ccccc4)n3)C2C1 (stereo not shown) : 6.88

// pKi value for O=C(c1c(F)cccc1-n1nccn1)N1CC[C@H]2CN(c3nccc(C(F)(F)F)n3)[C@H]2C1 : 7.64

// pKi value for CN(C)c1nc(N2C[C@@H]3CCN(C(=O)c4ccccc4-n4nccn4)C[C@@H]32)cc(C(F)(F)F)n1 : 8.30

// pKi value for O=C(c1ccccc1-n1nccn1)N1CC[C@H]2CN(c3cnc4ccccc4n3)[C@H]2C1 : 7.70

// pKi value for Cc1ccc(S(=O)(=O)N2CC[C@H]3CN(c4cnc5ccccc5n4)[C@H]3C2)c(C)c1 : 5.68

// pKi value for Cc1ccc(-c2ccccc2C(=O)N2CC[C@H]3CN(c4cnc5ccccc5n4)[C@H]3C2)cc1 : 7.36

// pKi value for Cc1cc(N2C[C@@H]3CCN(C(=O)c4ccccc4-n4nccn4)C[C@@H]32)nc(C(F)(F)F)n1 : 7.62
